# System: human plasma
# experimentalProtocol: Human plasma anticoagulation, prothrombin time (PT)
# studyConditions: concentration required to double the PT, linear extrapolation
measurementType: Human Plasma Anticoagulation 2 × Clotting time PT

- molecule: "Cl.Cl.N=C(N)NCCC[C@@H](C=O)NC(=O)CN(CCc1ccccc1)C(=O)[C@H]1CCCCN1"
  testTarget: "human plasma"
  reported: "2,000 ng/mL"
- molecule: "CCS(=O)(=O)N[C@H](Cc1ccccc1)C(=O)N(C)CC(=O)N[C@H](C=O)CCCNC(=N)N.Cl.Cl"
  testTarget: "human plasma"
  reported: "1,600 ng/mL"
- molecule: "Cl.Cl.N=C(N)NCCC[C@@H](C=O)NC(=O)CN(CCCc1ccccc1)C(=O)[C@H]1CCCCN1 [Example 9, D--hPro--N(PhCH2 CH2 CH2)Gly--ArgH.2HCl]"
  testTarget: "human plasma"
  reported: "3,000 ng/mL"

Recorded result, Cl.Cl.N=C(N)NCCC[C@@H](C=O)NC(=O)CN(CCc1ccccc1)C(=O)[C@@H]1CCCN1 [Example 19, L--Pro--N(CH2 CH2 Ph)Gly--ArgH.2HCl] , Human Plasma Anticoagulation 2 × Clotting time PT: 10,000 ng/mL

Recorded result, Cl.Cl.N=C(N)NCCC[C@@H](C=O)NC(=O)CN(CCCCC(=O)O)C(=O)[C@H]1CCCCN1 , Human Plasma Anticoagulation 2 × Clotting time PT: 21,000 ng/mL

Recorded result, CNCC(=O)N(CCc1ccccc1)CC(=O)N[C@H](C=O)CCCNC(=N)N.Cl.Cl [Example 17, Sar--N(CH2 CH2 Ph)Gly--ArgH.2HCl] , Human Plasma Anticoagulation 2 × Clotting time PT: 2,700 ng/mL
